Data origin: ChEMBL document CHEMBL1781878

T1/2, Acetylcholinesterase (Homo sapiens): measured values
Please give a number only; it is taken to be in h.

Give recorded T1/2 with Acetylcholinesterase (Homo sapiens) for the following compound: C[C@@H](Cc1ccccc1)NC(=O)Oc1cccc([C@H](C)N(C)C)c1.Cl
1.2

Now look at this one.
Give recorded T1/2 with Acetylcholinesterase (Homo sapiens) for the following compound: C[C@H](Cc1ccccc1)NC(=O)Oc1cccc([C@H](C)N(C)C)c1
12

====

Assay notes: Toxicity in po dosed rat assessed as maximum tolerated dose at which reversible and non-life threatening cholinergic effect observed
Format: organism-based
Experimental context: in vivo
Metric name: MTD (mg/kg)
Please give a number only; it is taken to be in mg/kg.

Name the reported MTD value associated with the molecule C[C@H](Cc1ccccc1)N(C)C(=O)Oc1cccc([C@H](C)N(C)C)c1.Cl
10

====

T1/2, Acetylcholinesterase (Homo sapiens): measured values

Use the examples below as a reference point.
Name the reported T1/2 value associated with the molecule C[C@@H](c1cccc(OC(=O)N(C)[C@@H](C)Cc2ccccc2)c1)N(C)C.Cl
> 24 h

Then what about the molecule CCN(C)C(=O)Oc1cccc([C@H](C)N(C)C)c1 [RIVASTIGMINE] ?
> 24 h

Now look at this one.
Name the reported T1/2 value associated with the molecule C[C@H](Cc1ccccc1)N(C)C(=O)Oc1cccc([C@H](C)N(C)C)c1.Cl
> 24 h
